Cited source: patent US20020019536A1

Form field: percentage inhibition of 14C-acetate incorporation (one value per entry).
system: 14C-acetate incorporation into the steroids which can be precipitated with digitonin (cholesterol biosynthesis); assay: Inhibition of 14C-acetate incorporation into the steroids which can be precipitated with digitonin; type: cell-based; conditions: test concentration 10^−9 mol/l
outcome-measure: percentage inhibition of 14C-acetate incorporation (%)

| compound | assay-value |
| --- | --- |
| C=CCN(C)Cc1ccc([C@H]2CC[C@H](N(C)C(=O)Oc3ccc(Cl)cc3)CC2)cc1 | −74 |
| CN(C)Cc1ccc([C@H]2CC[C@H](N(C)C(=S)SCc3ccc(Cl)cc3)CC2)cc1.Cl | −51 |
| CN(C)Cc1ccc([C@H]2CC[C@H](N(C)C(=S)SCc3ccc(F)cc3)CC2)cc1.Cl | −52 |
| Cc1ccc(OC(=S)N(C)[C@H]2CC[C@H](c3ccc(CN4CCCCC4)cc3)CC2)cc1.Cl | −51 |
| CN(C)Cc1ccc([C@H]2CC[C@H](N(C)C(=S)Oc3ccc(Cl)cc3)CC2)cc1.Cl | −43 |
| CN(C)Cc1ccc([C@H]2CC[C@H](N(C)C(=O)Oc3ccc(Cl)cc3)CC2)cc1.Cl | −57 |
| CN(C)Cc1ccc([C@H]2CC[C@H](N(C)C(=S)Sc3ccc(Cl)cc3)CC2)cc1 | −39 |
| CCN(CC)Cc1ccc([C@H]2CC[C@H](N(C)C(=O)Oc3ccc(Cl)cc3)CC2)cc1.Cl | −53 |
| C#CCN(C)Cc1ccc([C@H]2CC[C@H](N(C)C(=O)Oc3ccc(Cl)cc3)CC2)cc1 | −75 |
| CN(C(=O)Oc1ccc(Cl)cc1)[C@H]1CC[C@H](c2ccc(CN3CCCCC3)cc2)CC1.Cl | −43 |
| CN(C)Cc1ccc([C@H]2CC[C@H](N(C)C(=O)c3ccc(Cl)cc3)CC2)cc1 [V, reference compound] | −23 |
| CN(C)Cc1ccc([C@H]2CC[C@H](N(C)C(=O)Sc3ccc(Cl)cc3)CC2)cc1.Cl | −65 |
| Cc1ccc(OC(=O)N(C)[C@H]2CC[C@H](c3ccc(CN(C)C)cc3)CC2)cc1.Cl | −57 |
| CN(C)Cc1ccc([C@H]2CC[C@H](N(C)C(=S)SCc3cccc(F)c3)CC2)cc1.Cl | −59 |
| Cc1ccc(OC(=S)N(C)[C@H]2CC[C@H](c3ccc(CN(C)C)cc3)CC2)cc1.Cl | −60 |
| CN(C)Cc1ccc([C@H]2CC[C@@H](N(C)C(=S)SCc3ccccc3)CC2)cc1.Cl | −40 |
| CN(C(=O)Oc1ccc(Cl)cc1)[C@H]1CC[C@H](c2ccc(CN3CCCC3)cc2)CC1.Cl | −53 |
| CN(C)Cc1ccc([C@H]2CC[C@H](N(C)C(=O)Oc3ccc(F)cc3)CC2)cc1.Cl | −63 |
